Reference source for all entries: ChEMBL document CHEMBL1201862

I'd appreciate it if you could supply GI50 values for the items below.
tested on: 786-0; assay: NCI tumour cell line growth inhibition, 48 h
Active and inactive are the calls of the source. Cut-off read from the data, not from the text of the source: active = GI50 up to about 1.1 µM and inactive = higher.

COC1=CC(=O)[C@]2(C)[C@H](C1=O)C(C)[C@H]2c1ccccc1 (stereo not given in full) : > 100 µM (inactive)
Cn1c(=O)c2c(nc(N)n2C2OC(CO)C(O)C2O)n(C)c1=O (stereo not given) : > 100 µM (inactive)

Record GI50 per entry; entries follow.
1. Nc1nc(N)c2c3c(cnc2n1)CC(c1ccccc1)CC3 (stereo not given)
2. CC(NC(=O)N(C)C)NC(=O)N(C)C
3. c1ccc([P+](c2ccccc2)(c2ccccc2)c2ccc([P+](c3ccccc3)(c3ccccc3)c3ccccc3)cc2)cc1
4. CC(C)OC(=O)[C@@H](O)[C@H](CO)C1=CC([Si](C)(C)c2ccccc2)=CON1
5. O=C(O)c1nc2ccc(C(F)(F)F)cc2nc1Nc1ccc(F)cc1
6. C#C[C@]1(O)CC[C@H]2[C@@H]3CCc4cc(OC(=O)c5cccc6cc7ccccc7nc56)ccc4[C@H]3CC[C@@]21C
7. CCC(C)(C)NC1=C(NC(C)=O)C(=O)c2ccccc2C1=O
8. O=c1sc2c(s1)SSSSS2

1: 7.83 µM (inactive); 2: > 10 µM (inactive); 3: > 100 µM (inactive); 4: > 100 µM (inactive); 5: 20 µM (inactive); 6: 27.5 µM (inactive); 7: > 75 µM (inactive); 8: > 50 µM (inactive)
